System: HeLa-p4 cells
Assay: Cell viability assay (MTS) on HeLa-p4 cells
Format: cell-based
Conditions: 100 μM; cell viability
Description: HeLa-p4 cells are HeLa CD4 LTR-LacZ wherein LacZ expression is induced by the trans-activating protein Tat of HIV, making possible the precise quantification of HIV-1 infectivity from a single replication cycle. […] The titles for a single cycle of the viruses were determined 48 hours after infection by quantifying the beta-galactosidase activity in lysates P4 by colorimetric test (CPRG, Promega) based on the cleavage of chlorophenol red-beta-D-galactopyranoside (CPRG) by beta-galactosidase. […]
Where a name gives a salt, the structure may show the parent alone.
Readout Type: Hela-p4 MTS 100 μM
Give bare numbers.

See these solved cases before continuing.
Cc1ccccc1CCN1C[C@H](N)C[C@H](N)C1 [ECO01-028-C]: 94
COc1ccc(CCN2C[C@H](N3C[C@H](N)C[C@H](N)C3)C[C@H](N3C[C@H](N)C[C@H](N)C3)C2)cc1OC [AB-103]: 84
COC(=O)[C@H](Cc1ccccc1)N1C[C@H](N)C[C@H](N)C1 [AB-81]: 94
N[C@@H]1C[C@H](N)CN(S(=O)(=O)c2ccccc2)C1 [ECO03-001-B, 1-(phenylsulfonyl)piperidine-3,5-diamine]: 104
N[C@@H]1C[C@H](N)CN(c2ccc3c(c2)OCO3)C1 [ECO01-042-C]: 60

For each of the items listed, what is its Hela-p4 MTS 100 μM?
1. COc1ccc2[nH]cc(CCN3C[C@H](N)C[C@H](N)C3)c2c1 [AB-84]
2. N[C@@H]1C[C@H](N)CN(Cc2ccccc2)C1 [ECO02-063-C, trihydrochloride]
3. COc1ccc(CC(=O)N2C[C@H](N)C[C@H](N)C2)cc1OC [AB287-F1]

60
112
92

* * *

tested on: wild type NL4-3 virus (HIV-1) in HeLa-p4 cells; test: HeLa-p4 single-cycle HIV-1 infectivity, beta-galactosidase CPRG test; assay type: cell-based; settings: Human immunodeficiency virus 1, NL43, HeLaP4; 100 μM; 48 hours after infection; control = NL4-3 virus alone; read-out: Hela-p4 CPRG 100 μM
Can you tell me activity at 100 µM for the items I'm about to list?
Answers are plain numbers, in %.

See these solved cases before continuing.
CC(C)(C)OC(=O)N[C@@H]1C[C@H](NC(=O)OC(C)(C)C)CN(S(=O)(=O)c2ccccc2)C1: 207
COc1ccc2c(CN3C[C@H](NC(=O)OC(C)(C)C)C[C@H](NC(=O)OC(C)(C)C)C3)cn(C)c2c1: 221
COc1ccccc1CCN1C[C@H](N)C[C@H](N)C1: 108

--- query ---
Please indicate activity at 100 µM recorded for `COc1ccc(CN2C[C@H](N)C[C@H](N)C2)cc1`
199

* * *

Can you tell me Hela-p4 MTS 50 μM for the items I'm about to list?
tested on: HeLa-p4 cells; assay: Cell viability assay (MTS) on HeLa-p4 cells; assay type: cell-based; conditions: 50 μM; cell viability
Numbers only.

CCc1ccc(C(=O)NC(CCCCN)C(=O)N2C[C@H](N)C[C@H](N)C2)cc1 (some centres unmarked): 113
N[C@@H]1C[C@H](N)CN(Cc2ccco2)C1: 91
COC(=O)[C@H](Cc1ccccc1)N1C[C@H](N)C[C@H](N)C1: 96
COc1cccc(CCN2C[C@H](NC(=O)OC(C)(C)C)C[C@H](NC(=O)OC(C)(C)C)C2)c1: 105

--- query ---
Please indicate Hela-p4 MTS 50 μM recorded for `COc1ccccc1CCN1C[C@H](N)C[C@H](N)C1`
88
